pIC50: −log10 of the molar value.
Literature pIC50 values, system: Tyrosine-protein kinase JAK3 (Homo sapiens).
Property measured: pIC50

INSERT INTO measurements (compound, target_or_system, recorded_result) VALUES
  ('Cc1ccc(NC(=O)c2cc(N3CCN(CCO)CC3)cc(C(F)(F)F)c2)cc1-c1ccc2c(c1)[nH]c1ncncc12', 'Tyrosine-protein kinase JAK3 (Homo sapiens)', '≥ 6.30'),
  ('CN(c1ncnc2[nH]ccc12)[C@H]1CN(S(=O)(=O)c2cccc(C#N)c2)CC12CC2', 'Tyrosine-protein kinase JAK3 (Homo sapiens)', 6.96),
  ('Cc1cnc(Nc2cccc(S(N)(=O)=O)c2)nc1Nc1ccc2c(c1)CCN(C(=O)CCl)C2', 'Tyrosine-protein kinase JAK3 (Homo sapiens)', '> 8.00'),
  ('Cn1cc(-c2cc3nccn3c(-c3cnn([C@@H](CCF)C4CCC4)c3)n2)cn1', 'Tyrosine-protein kinase JAK3 (Homo sapiens)', '6.00 to 7.00'),
  ('Cc1cccc(Nc2cc(Nc3ccccc3Cl)c(C(N)=O)cn2)n1', 'Tyrosine-protein kinase JAK3 (Homo sapiens)', 7.82),
  ('O=c1[nH]c2c(N3CCC3)nc(-n3cnc4ccc(F)cc43)nc2n1C1CCOCC1', 'Tyrosine-protein kinase JAK3 (Homo sapiens)', '> 7.00'),
  ('C=CC(=O)N1CCC[C@@H](n2nc(-c3ccc(Oc4ccccc4)cc3)c3cnc(N)nc32)C1', 'Tyrosine-protein kinase JAK3 (Homo sapiens)', '< 6.30'),
  ('CCCN(Cc1cc(C)ccc1N(C)S(C)(=O)=O)c1nc(-c2cc(F)c(O)cc2CC)cc2[nH]ncc12', 'Tyrosine-protein kinase JAK3 (Homo sapiens)', 6.73),
  ('Cc1nn(C(CC#N)C2CC2)cc1-c1nc(-c2cnn(C)c2)cc2nccn12 (centres unmarked)', 'Tyrosine-protein kinase JAK3 (Homo sapiens)', '< 6.00'),
  ('Cn1cc(-c2cn3nccc3c(-c3cnn(C4(C)CCCC4)c3)n2)cn1', 'Tyrosine-protein kinase JAK3 (Homo sapiens)', '5.00 to 6.00'),
  ('NC(=O)c1cnc(Nc2ccc3c(c2)NC[C@H](O)CO3)nc1NCC1CC1', 'Tyrosine-protein kinase JAK3 (Homo sapiens)', '> 8.00'),
  ('Cc1ccc(-c2cc3nccn3c(-c3cnn(C(CC#N)C4CC4)c3)n2)cn1 (centres unmarked)', 'Tyrosine-protein kinase JAK3 (Homo sapiens)', '< 6.00'),
  ('CS(=O)(=O)C(CCNC(=O)c1noc2c1CN(c1ncnc3[nH]ccc13)CC2)C(F)(F)F (centres unmarked)', 'Tyrosine-protein kinase JAK3 (Homo sapiens)', '6.30 to 7.00'),
  ('CCC(CC)n1cc(-c2nc(-c3cnn(C[C@H](N)C(C)(C)O)c3)cn3nccc23)cn1', 'Tyrosine-protein kinase JAK3 (Homo sapiens)', '5.00 to 6.00'),
  ('C=CC(=O)Nc1cccc(Oc2nc(Nc3ccc(C(=O)NC4CCN(C)CC4)cc3)nc3ccsc23)c1', 'Tyrosine-protein kinase JAK3 (Homo sapiens)', '≥ 7.30'),
  ('NC(=O)c1cnc(Nc2ccc3c(c2)NCCCO3)nc1NC1CC1', 'Tyrosine-protein kinase JAK3 (Homo sapiens)', '7.00 to 8.00'),
  ('CCNC(=O)N[C@H]1CC[C@H](N(C)c2ncnc3[nH]ccc23)CC1', 'Tyrosine-protein kinase JAK3 (Homo sapiens)', 6.35);
